This collection of values is drawn from PubChem BioAssay (NCI).

tested on: UO-31 renal; assay: NCI-60 one-dose screen, 48 h (100 = growth as untreated, 0 = no growth, -100 = all killed); conditions: 10 µM unless noted
This is part of a sample that, as a whole, favours compounds with a hit. Of some 83,000 tested, about 20% had one in any assay.

MOLECULE	growth, %
CCN(CC)Cc1c(-c2cccc(OC(F)(F)F)c2)[nH]c2ccc(N3CCCC3)cc2c1=O	77.7
IP(CCCCCCCCCCSc1n(Cc2ccc3ccccc3c2)c(-c2ccccc2)c(-c2ccccc2)[n+]1Cc1ccc2ccccc2c1)(c1ccccc1)(c1ccccc1)c1ccccc1	-4.18
CCCCCCNC(=O)Oc1ccc(/C(=C(\C)c2ccc(OC)cc2)c2ccc(OCCN(C)C)cc2)cc1	52.1
COc1ccc(/C(C)=C(\c2ccc(Cl)cc2)c2ccc(OCCN)cc2)cc1	60.8
O=C1c2c(c3c4ccc(Br)cc4oc3c3[nH]c4ccccc4c23)C(=O)N1CCO	25.6
CCOC(=O)CC(=O)CSC1=NC2C(NN1)N(C)C(=O)N2C (configuration not stated)	57.2
O=C1[C@H]2Cc3c([nH]c4ccccc34)[C@H](c3ccc(Cl)cc3)N2C(=O)CN1C1CCN(Cc2c(Cl)cccc2Cl)CC1	48.4
COC(=O)[C@@]1(C)CC[C@]2(C)CC[C@]3(C)C(=CC(=O)[C@@H]4[C@@]5(C)Cc6c(n(CC#CCN7CCN(C)CC7)c7ccccc67)C(C)(C)[C@@H]5CC[C@]43C)[C@@H]2C1	65.7
CCC(CC)n1c(=O)c(SC2=NC3C(NN2)N(CC)C(=O)N3CC)c(C(=O)O)c2ccccc21 (configuration not stated)	39.5
O=[N+]([O-])c1ccc(-c2nnc(SCc3ccc(O)c4ncccc34)n2-c2ccccc2)cc1	7.34
CCCCCCCCCC[C@@H](C)[C@@H]1CC(=O)N[C@H]([C@@H](C)O)C(=O)N[C@@H](C)C(=O)N[C@H](C)C(=O)N[C@@H](CCC(N)=O)C(=O)N[C@H](Cc2ccc(O)cc2)C(=O)N[C@@H](C(C)CC)C(=O)O1 (some centres not stated)	79.6
C[C@@H]1C[C@H]2C(=O)OCC(NC(=O)[C@H](Cc3cc(F)cc(F)c3)NC(=O)Nc3ccc(Cl)cc3F)C(=O)N3CCC[C@H]3C(=O)N3CCCC[C@H]3C(=O)N[C@@H](C)C(=O)N2C1 (some centres not stated)	30
C=CCn1c(SCC(=O)Nc2cccc(C(=O)/C=C/c3cc(OC)c(OC)c(OC)c3)c2)nc2ccccc2c1=O	49
Cn1cc(-c2nnc(N)nc2-c2cn(C)c3ccc(F)cc23)c2cc(F)ccc21	82.6
Clc1ccc(-c2csc(N/N=C/c3nc4ccccc4n3C3CC3)n2)cc1	84.3
COc1cc2oc(-c3cccc(NC(=O)c4cc(NC(=O)[C@H](C)N)ccc4Cl)c3)cc(=O)c2c(OC)c1OC	72.3
CC(C)=CCc1c(O)c(CC=C(C)C)c2c(c1O)C(=O)C1=C[C@@H]3C[C@H]4C(C)(C)O[C@@](C/C=C(\C)C(=O)O)(C3=O)[C@@]14O2	-30.9
C/C(=C(/C)C1CC1CCN(C(=O)c1ccc([N+](=O)[O-])cc1)S(=O)(=O)c1ccc(C)cc1)C1CCCCC1 (configuration not stated)	92.2
COCCOc1ccc(-c2csc(NC(=O)CN3CCN(CCO)CC3)n2)cc1NS(=O)(=O)c1cccc2c(N(C)C)cccc12	65.3
COc1ccc(-c2nnc(SCc3ccc(O)c4ncccc34)o2)cc1	8.44
Cc1cc(F)cc(NS(=O)(=O)c2ccc(-c3cnc(C4CC4)o3)cc2)c1	43.2
NS(=O)(=O)c1ccc(-n2cc(CC=O)nn2)cc1	87.7
Brc1cccc(/C=N/Nc2nc(N/N=C/c3cccc(Br)c3)nc(N3CCOCC3)n2)c1	25.5
CCN1CCN(Cc2ccc(C(=O)Nc3nc4ccc(Oc5ccnc(C(=O)NC)c5)cc4s3)cc2C(F)(F)F)CC1	33.2
CCn1c2ccc(/C=N/NS(=O)(=O)CCN(C)C)cc2c2cc(/C=N/NS(=O)(=O)CCN(C)C)ccc21	88
NC(=O)N1N=C(c2cc3ccccc3oc2=O)CC1c1cn(-c2ccccc2)nc1-c1ccc(Cl)cc1 (configuration not stated)	17.8
COc1cc(/C=N/n2cnc3oc(-c4ccccc4)cc3c2=N)cc(CN2CCN(C)CC2)c1O	74
O=C1[C@H]2Cc3c([nH]c4ccccc34)[C@@H](c3c(Cl)cccc3Cl)N2C(=O)CN1C1CCN(Cc2ccccc2)CC1	75.9
COc1cc(/C=C2\SC(=O)NC2=O)ccc1OCC(=O)Nc1ccc(C(=O)/C=C/c2cc3ccccc3nc2Cl)cc1	66.1
N/C(=N\OC(=O)CSc1nc2ccccc2s1)c1ccc2ccccc2c1	78.6
CC1CCc2c(sc3nc(SCC(=O)N/N=C/c4ccc(Cl)cc4)n(-c4ccccc4)c(=O)c23)C1 (configuration not stated)	94.2
COC(=O)c1c(C(=O)OC)c2n(CC(=O)Nc3cccc4cccnc34)c3ccccc3n2c1C(=O)c1ccc(C)cc1	75.7
